test system: CRL-7250; experiment: Cytotoxic Profiling of Annotated Libraries Using Quantitative High-Throughput Screening (AID 1296008); conditions: Five cell lines viability, CellTiter-Glo ATP luminescence, 48-72 h; stronger effect = lower value; further: on the % scale 0 is the no-effect control and ±100 the full control effect
Records with an inconclusive call do not appear.
Documented max response across a set of compounds

# compound, max response (%)
measured = [
    ("COc1cc(-c2cn(C3CCc4c(F)cccc4N(CC(F)(F)F)C3=O)nn2)ccc1-n1cnc(C)c1 (stereo not drawn)", -13.5),
    ("CC(C)(C)NC(=O)[C@H]1CC[C@H]2[C@@H]3CC[C@H]4NC(=O)CC[C@]4(C)[C@H]3CC[C@]12C", -10.4),
    ("CC(=O)O[C@H]1[C@@]2(O)C[C@H](C)[C@H](OC(=O)c3ccccc3)[C@@H]2[C@@H](OC(=O)CO)[C@]2(OC(C)=O)C[C@H]3C(=O)C(C)(C)C[C@@H]3[C@@]1(C)[C@H]2OC(C)=O", -5.8),
    ("CC(=O)NC[C@H]1CN(c2ccc(N3CCSCC3)c(F)c2)C(=O)O1", 3.86),
    ("C=C(C)C1CCC2(C(=O)O)CCC3(C)C(CCC4C5(C)C(C=O)C(O)C(C)(C)C5CCC43C)C12 (stereo not drawn)", -7.47),
    ("CNC(C)C(=O)NC(C(=O)N1CCCC1C(=O)Nc1snnc1-c1ccccc1)C1CCCCC1 (stereo not drawn)", 0.759),
    ("CC(C)(Cc1ccccc1)NCC(O)c1ccc(O)c(NS(C)(=O)=O)c1 (stereo not drawn)", 0.0508),
    ("COc1cc2c(cc1OCCCN1CCCC1)N=C(N)C21CCC1", -5.27),
]

###

test system: CRL-7250; experiment: Cytotoxic Profiling of Annotated Libraries Using Quantitative High-Throughput Screening (AID 1296008); conditions: Five cell lines viability, CellTiter-Glo ATP luminescence, 48-72 h; stronger effect = lower value; further: on the % scale 0 is the no-effect control and ±100 the full control effect
Inconclusive results are not listed.
We label by threshold. Values of max response strictly beneath -20% are satisfied. Values of -20% and up are not satisfied.

# compound, labelValue
rows = [
    ("CC1OC(OC2C(O)COC(O[C@@H]3[C@@H](O)[C@@H](O)[C@H](OC4C(OC(=O)[C@]56CCC(C)(C)CC5C5=CCC7[C@@]8(C)C[C@H](O)[C@H](OC9OC(CO)C(O)C(O)C9O)[C@@](C)(CO)C8[C@H](O)C[C@@]7(C)[C@]5(C)CC6)OCC(O)C4O)O[C@H]3C)C2O)C(O)C(O)C1O (stereo not given in full)", "not satisfied"),
    ("COc1ccccc1N1CCN(c2ncnc3n[nH]c(Br)c23)CC1", "not satisfied"),
    ("N#Cc1ccc(O[C@@H]2c3ccccc3C[C@H]2N2CCC[C@@H](N)C2)c(Cl)c1", "satisfied"),
    ("Cc1cccc(-c2[nH]ncc2-c2ccc(F)c(-c3cnn(CCO)c3)c2)n1", "not satisfied"),
    ("C[C@@H]1O[C@@H](O[C@H]2[C@@H](OC(=O)[C@]34CCC(C)(C)CC3C3=CCC5[C@@]6(C)C[C@H](O)[C@H](O[C@@H]7O[C@H](CO)[C@@H](O)[C@H](O)[C@H]7O[C@@H]7OC[C@@H](O)[C@H](O)[C@H]7O)[C@@](C)(C(=O)O)C6CC[C@@]5(C)[C@]3(C)CC4)OC[C@H](O)[C@@H]2O)[C@H](O)[C@H](O)[C@H]1O[C@@H]1OC[C@@H](O)[C@H](O)[C@H]1O (stereo not given in full)", "not satisfied"),
]
